meta.source: paper PMC4336329

# target or test system: human ether-à-go-go-related gene (hERG) potassium channel (human, UniProt Q12809);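 note: peak tail current of the secondary pulse compared with the same well before compound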
# Sequence (Q12809 whole entry, looked up): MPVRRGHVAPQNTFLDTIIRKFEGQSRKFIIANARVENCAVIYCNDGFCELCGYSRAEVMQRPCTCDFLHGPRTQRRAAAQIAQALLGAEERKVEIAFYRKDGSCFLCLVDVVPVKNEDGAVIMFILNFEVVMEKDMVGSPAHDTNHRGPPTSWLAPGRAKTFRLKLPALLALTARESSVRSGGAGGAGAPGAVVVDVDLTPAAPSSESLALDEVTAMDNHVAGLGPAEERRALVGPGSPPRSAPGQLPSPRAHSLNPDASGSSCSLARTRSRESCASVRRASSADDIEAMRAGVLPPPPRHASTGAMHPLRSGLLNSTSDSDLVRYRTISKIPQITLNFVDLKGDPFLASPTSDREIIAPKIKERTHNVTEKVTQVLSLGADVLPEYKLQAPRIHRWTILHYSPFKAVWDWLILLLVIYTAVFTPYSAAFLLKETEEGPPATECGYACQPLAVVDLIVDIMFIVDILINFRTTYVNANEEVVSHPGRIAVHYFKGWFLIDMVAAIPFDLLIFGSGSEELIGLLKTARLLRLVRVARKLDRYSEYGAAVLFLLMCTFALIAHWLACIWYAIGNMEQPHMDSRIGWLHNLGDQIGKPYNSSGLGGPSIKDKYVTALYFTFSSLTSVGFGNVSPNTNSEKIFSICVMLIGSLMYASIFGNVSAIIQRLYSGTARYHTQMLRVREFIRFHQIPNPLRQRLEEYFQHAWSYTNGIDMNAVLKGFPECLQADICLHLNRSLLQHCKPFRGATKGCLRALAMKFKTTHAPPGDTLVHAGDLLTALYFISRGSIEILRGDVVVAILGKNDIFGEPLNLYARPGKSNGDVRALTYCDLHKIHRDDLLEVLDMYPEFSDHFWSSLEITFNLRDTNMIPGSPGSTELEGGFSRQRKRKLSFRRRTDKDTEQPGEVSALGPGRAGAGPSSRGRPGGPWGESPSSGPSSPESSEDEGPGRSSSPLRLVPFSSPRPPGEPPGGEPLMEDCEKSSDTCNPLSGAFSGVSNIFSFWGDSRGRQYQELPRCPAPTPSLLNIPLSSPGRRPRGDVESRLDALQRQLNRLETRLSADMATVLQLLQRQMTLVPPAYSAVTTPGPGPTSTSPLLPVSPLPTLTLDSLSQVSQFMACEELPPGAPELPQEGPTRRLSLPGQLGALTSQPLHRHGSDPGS
# method: primary screen, population patch clamp on CHO cells stably expressing hERG; higher = less effect of the substance
# Method: Briefly, Chinese hamster ovary (CHO) cells stably expressing the hERG channel were dislodged from tissue culture flasks and dispensed into PPC plates. […] During the recording, background leak currents were estimated by a 100 ms step to -80 mV from an initial holding potential of -70 mV and subtracted from the subsequent current measurement. The campaign was conducted in two phases using slight differences in recording protocol. […]
Screen size: about 310,000 compounds; about 14,000 (4.5%) showed an effect of 50% or more. Effects have a minus sign here. The list comes from a sample in which strong results are over-represented; it also holds close analogues and randomly drawn compounds.
Task for the reader: assign each of the following compounds its reported hERG current change (%, negative = inhibition) at 10uM.
Answers are plain numbers, in %.

# count of solved cases: 4
Recorded hERG current change (%, negative = inhibition) at 10uM of `COc1cccc(N(CC(=O)N/N=C(\C)c2cccs2)S(C)(=O)=O)c1` , please.
6.58

Also O=C(c1ccc(Cn2cnnn2)cc1)N1CCCC(Nc2ccc(F)cc2)C1 (centres unmarked) ?
-0.196

Now consider `CCc1c(C)nc(SCC(=O)N2CCCCC2)[nH]c1=O` and answer again.
3.18

Try the compound `CC(C)c1ccc(O)c(NC(=O)c2cccnc2)c1`
6.07

Further cases:
Which hERG current change (%, negative = inhibition) at 10uM value is on record for O=C1C(=O)N(CCc2c[nH]c3ccccc23)C(c2cccnc2)/C1=C(/O)c1ccccc1 (centres unmarked) ?
2.24

====

# target or test system: human ether-à-go-go-related gene (hERG) potassium channel (human, UniProt Q12809);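 note: peak tail current of the secondary pulse compared with the same well before compound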
# method: primary screen, population patch clamp on CHO cells stably expressing hERG; higher = less effect of the substance
The campaign covered roughly 310,000 compounds. About 14,000 (4.5%) showed an effect of 50% or more. Effects have a minus sign here. The full list was thinned out, with strong results kept by preference.
measurement label: hERG current change (%, negative = inhibition) at 10uM (%)
One number for each entry, in %.

Field request: hERG current change (%, negative = inhibition) at 10uM | item: COc1ccc(C2C(C(=O)OCC3CCCO3)=C(C)NC3=C2C(=O)CC(c2ccco2)C3)cc1O (centres unmarked)
5.72

Moving on to `COc1ccc(Cl)cc1S(=O)(=O)N1CCC(C(=O)NC2CCCC2)CC1`
-21.2

Request: O=[N+]([O-])c1ccc(-c2nc(NCC3CCCO3)c3ccccc3n2)cc1 (centres unmarked)
12.3

Quick one: `Cc1cccc(C(=O)N(CCc2ccccc2)Cc2ccccc2)c1[N+](=O)[O-]`
4.17

And `O=C(NCc1ccccc1)c1ccc(Cl)cc1` ?
2.26

Below are some compounds; for each one, tell me its hERG current change (%, negative = inhibition) at 10uM.
1. O=C(c1cc(=O)c2ccccc2o1)N1CCN(c2ccccc2F)CC1
2. O=C(Nc1ccc(-c2csnn2)cc1)C(Cl)(Cl)Cl
3. O=C1c2ccc([N+](=O)[O-])cc2C(=O)N1c1ccc([N+](=O)[O-])cn1
4. O=C(C[n+]1cn(C(F)F)c2ccccc21)c1ccc(OC(F)F)cc1.[Br-]
5. COc1ccc(C(=O)C[n+]2cn(C(F)F)c3ccccc32)c(F)c1.[Br-]

1: -15.3; 2: 17.5; 3: 14.5; 4: -74.9; 5: -4.45
